measurement.description: Water solubility studies (salts dissolved in water at room temperature)
Format: physicochemical
particulars: thermodynamic from solid, HCl salt, read-out: Solubility of the HCl salt in H2O
measured.quantity: solubility

q: Which measured solubility value corresponds to C=CCNC1=C2C[C@@H](C)C[C@H](OC)[C@H](O)[C@@H](C)/C=C(\C)[C@H](OC(N)=O)[C@@H](OC)/C=C\C=C(/C)C(=O)NC(=CC1=O)C2=O [Compound 17-AAG, 17-allyl amino geldanamycin, reference compound] ?
a: < 10 µg/mL

q: Which solubility value belongs to COC1/C=C\C=C(/C)C(=O)NC2=CC(=O)C(c3cccs3)=C(CC(C)CC(OC)C(O)C(C)/C=C(\C)C1OC(N)=O)C2=O (stereo not shown) ?
a: < 10 µg/mL

q: Please report the recorded solubility for COc1ccccc1C1=C2CC(C)CC(OC)C(O)C(C)/C=C(\C)C(OC(N)=O)C(OC)/C=C\C=C(/C)C(=O)NC(=CC1=O)C2=O (stereo not shown) .
a: < 10 µg/mL

q: What does the data say about its solubility? Entry: COC1C=CC=C(C)C(=O)NC2=CC(=O)C(NCCCN(C)CCCNC3=C4CC(C)CC(OC)C(O)C(C)C=C(C)C(OC(N)=O)C(OC)C=CC=C(C)C(=O)NC(=CC3=O)C4=O)=C(CC(C)CC(OC)C(O)C(C)C=C(C)C1OC(N)=O)C2=O (stereo not shown)
a: ≥ 20000 µg/mL

* * *

Task for the reader: assign each of the following compounds its reported IC50.
System: HIV-1ROJO
measurement.description: Anti-HIV PBMC assay (reverse transcriptase activity in supernatant)
particulars: read-out: IC50 (μM) (50% inhibition of virus replication); HIV-1ROJO in fresh human PBMCs, 7 days

q: Value lookup for IC50; key = C=CCNC1=C2C[C@@H](C)C[C@H](OC)[C@H](O)[C@@H](C)/C=C(\C)[C@H](OC(N)=O)[C@@H](OC)/C=C\C=C(/C)C(=O)NC(=CC1=O)C2=O [Compound 17-AAG, 17-allyl amino geldanamycin, reference compound]
a: 0.38 µM

q: If you can, please state the reported IC50 value of C=CCO/N=C1/[C@@H](OC)C[C@H](C)CC2=C(NC(=O)c3ccccc3)C(=O)C=C(NC(=O)/C(C)=C/C=C\[C@H](OC)[C@@H](OC(N)=O)/C(C)=C/[C@@H]1C)C2=O (stereo in doubt) [Compound #1011] .
a: 0.2 µM

* * *

Provide the reported IC50 of each item.
system.under.test: HSP90 (bis-ANS treated)
measurement.description: Biotin-geldanamycin competition binding, bis-ANS treated HSP90
Provide only the numeric value, understood in µM.

q: Observed IC50 on HSP90 (bis-ANS treated) for CO[C@H]1/C=C\C=C(/C)C(=O)NC2=CC(=O)C(NC(=O)c3ccccc3)=C(C[C@@H](C)C[C@H](OC)[C@@H](OC(=O)/C=C/c3cccs3)[C@@H](C)/C=C(\C)[C@@H]1OC(N)=O)C2=O , please.
a: 5.5

q: # query: IC50 | item CO[C@H]1/C=C\C=C(/C)C(=O)NC2=CC(=O)C(NC(=O)c3ccccc3)=C(C[C@@H](C)C[C@H](OC)[C@@H](OC(=O)Cc3ccccc3)[C@@H](C)/C=C(\C)[C@@H]1OC(N)=O)C2=O | system: HSP90 (bis-ANS treated)
a: 7

q: Find the measured IC50: item CO/N=C1/[C@@H](OC)C[C@H](C)CC2=C(NC(=O)c3ccccc3)C(=O)C=C(NC(=O)/C(C)=C/C=C\[C@H](OC)[C@@H](OC(N)=O)/C(C)=C/[C@@H]1C)C2=O (stereo in doubt) , target or system HSP90 (bis-ANS treated).
a: 6

q: Form field: IC50 recorded for C=CCO/N=C1/[C@@H](OC)C[C@H](C)CC2=C(NC(=O)c3ccccc3)C(=O)C=C(NC(=O)/C(C)=C/C=C\[C@H](OC)[C@@H](OC(N)=O)/C(C)=C/[C@@H]1C)C2=O (stereo in doubt) with HSP90 (bis-ANS treated) (enter value)
a: 5
